What follows is a record of pKi for Cannabinoid receptor 1 (Rattus norvegicus).
Scale explanation: pKi corresponds to minus log10 of a concentration expressed in moles per litre.

Documented pKi of COC(=O)c1nnn(-c2ccc(Cl)cc2)c1-c1ccc(Cl)cc1 : 5.36

pKi for O=C(Oc1ccccc1)c1nnn(-c2ccc(Cl)cc2Cl)c1-c1ccc(Cl)cc1 is 7.96

pKi reading for O=C(NN1CCCCC1)c1nnn(-c2ccc(Cl)cc2Cl)c1-c1ccc(Cl)cc1 : 6.23

====

Cannabinoid receptor 1 (Rattus norvegicus, UniProt P20272): reported log10(Ki) for various compounds.
Sequence (P20272 whole entry): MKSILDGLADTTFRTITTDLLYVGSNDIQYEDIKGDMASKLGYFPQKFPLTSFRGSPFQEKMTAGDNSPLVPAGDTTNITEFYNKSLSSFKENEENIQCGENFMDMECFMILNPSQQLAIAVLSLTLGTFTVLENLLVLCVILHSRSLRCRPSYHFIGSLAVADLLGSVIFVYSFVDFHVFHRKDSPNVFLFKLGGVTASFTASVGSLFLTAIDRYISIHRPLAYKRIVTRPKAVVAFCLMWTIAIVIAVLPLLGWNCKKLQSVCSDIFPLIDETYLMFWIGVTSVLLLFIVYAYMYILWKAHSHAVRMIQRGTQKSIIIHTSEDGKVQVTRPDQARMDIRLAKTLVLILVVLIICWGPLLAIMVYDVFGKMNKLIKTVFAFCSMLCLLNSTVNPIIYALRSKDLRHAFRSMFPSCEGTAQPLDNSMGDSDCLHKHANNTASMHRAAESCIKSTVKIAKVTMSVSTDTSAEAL
In our notation, the value equals log10 of Ki in nM.

// known answers, use as guide
{"test smiles": "O=C(OC1CCCCC1)c1nnn(-c2ccc(Cl)cc2Cl)c1-c1ccc(Cl)cc1", "tgt": "Cannabinoid receptor 1 (Rattus norvegicus, UniProt P20272)", "log10(Ki)": 2.38}
{"test smiles": "COC(=O)c1nnn(-c2ccc(Cl)cc2Cl)c1-c1ccc(Cl)cc1", "tgt": "Cannabinoid receptor 1 (Rattus norvegicus, UniProt P20272)", "log10(Ki)": 1.82}
{"test smiles": "CCOC(=O)c1nnn(-c2ccc(Cl)cc2Cl)c1-c1ccc(Cl)cc1", "tgt": "Cannabinoid receptor 1 (Rattus norvegicus, UniProt P20272)", "log10(Ki)": 2.26}
{"test smiles": "O=C(OCc1ccccc1)c1nnn(-c2ccc(Cl)cc2Cl)c1-c1ccc(Cl)cc1", "tgt": "Cannabinoid receptor 1 (Rattus norvegicus, UniProt P20272)", "log10(Ki)": 1.99}

// sample CCCOC(=O)c1nnn(-c2ccc(Cl)cc2Cl)c1-c1ccc(Cl)cc1 , its log10(Ki) was 0.66
